B1: 2M8U (parent)
chain: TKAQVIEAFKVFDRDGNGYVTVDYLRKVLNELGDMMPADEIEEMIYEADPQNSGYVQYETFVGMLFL

variants of: B1; experiment: folding stability dG (cDNA display proteolysis); higher = more stable; details: PBS, room temperature
Think of 3 kcal/mol as a floor: if folding stability dG stands on it or above, it is yes; beneath it, no.

biopolymerSequence: TKAQVIEAFKVFDRDGNGYVTVDYLRKVLNELGDMMPADEIEEMIYEADPQNSMYVQYETFVGMLFL [G54M]
discreteLabel: no
//
biopolymerSequence: TKAQVIEAFKVFDNDGNGYVTVDYLRKVLNELGDMMPADEIEEMIYEADPQNSGYVQYETFVGMLFL [R14N]
discreteLabel: yes
//
biopolymerSequence: TKAQLIEAFKVFDRDGNGYVTVDYLRKVLNELGDMMPADEIEEMIYEADPQNSGYVQYETFVGMLFL [V5L]
discreteLabel: yes
//
biopolymerSequence: TKAQVIEAFKVFDRDGNGYVTVDYLRKVLNELGDMMPADEIEEMIYEADPQNSGYVQYETFVGMKFL [L65K]
discreteLabel: no
//
biopolymerSequence: TKAQVIEAFKVFDRDGNGYVTVRYLRKVLNELGDMMPADEIEEMIYEADPQNSGYVQYETFVGMLFL [D23R]
discreteLabel: yes
//
biopolymerSequence: TKAQVIEAFKVFDRDGNGYVTVDYLRKVLNELGDMNPADEIEEMIYEADPQNSGYVQYETFVGMLFL [M36N]
discreteLabel: yes
//
biopolymerSequence: GKAQVIEAFKVFDRDGNGYVTVDYLRKVLNELGDMMPADEIEEMIYEADPQNSGYVQYETFVGMLFL [T1G]
discreteLabel: no
//
biopolymerSequence: TKAQVIEAFKVFDRDGNGYVTVDYLRKVLNELGDMMPADEIEEMIYEADPQNSGYVQWETFVGMLFL [Y58W]
discreteLabel: yes
//
biopolymerSequence: MKAQVIEAFKVFDRDGNGYVTVDYLRKVLNELGDMMPADEIEEMIYEADPQNSGYVQYETFVGMLFL [T1M]
discreteLabel: yes
//
biopolymerSequence: TKAQVIEAFKVFDRDGNGYVTVDYLRKVLNELGDMMPADEIEEMIYEADPVNSGYVQYETFVGMLFL [Q51V]
discreteLabel: yes
//
biopolymerSequence: TKAQVIEAFKVFDRDGNGYVTVDYLRKVLNELGDMMPADEIEEMIYEADQQNSGYVQYETFVGMLFL [P50Q]
discreteLabel: yes
//
biopolymerSequence: TKAQVIEAFKVFDRDGNGYVTVDYLRMVLNELGDMMPADEIEEMIYEADPQNSGYVQYETFVGMLFL [K27M]
discreteLabel: yes
//
biopolymerSequence: TKAQVIEAFKVFDRDGNGYVTVDYLRKVPNELGDMMPADEIEEMIYEADPQNSGYVQYETFVGMLFL [L29P]
discreteLabel: no
//
biopolymerSequence: TKAQVIEAFKVFDRDGNGYVTVDQLRKVLNELGDMMPADEIEEMIYEADPQNSGYVQYETFVGMLFL [Y24Q]
discreteLabel: yes
//
biopolymerSequence: TKAQVIEAFKVFDRDGNGYVTVDYLRKVLNELGDMMPADEIEPMIYEADPQNSGYVQYETFVGMLFL [E43P]
discreteLabel: yes
//
biopolymerSequence: TKAQVIEAFKVFDRDGNGYVTVDYLRKVLNELGDMMPADMIEEMIYEADPQNSGYVQYETFVGMLFL [E40M]
discreteLabel: yes
//
biopolymerSequence: TKAQVIEAFKVFHRDGNGYVTVDYLRKVLNELGDMMPADEIEEMIYEADPQNSGYVQYETFVGMLFL [D13H]
discreteLabel: no
//
biopolymerSequence: TPAQVIEAFKVFDRDGNGYVTVDYLRKVLNELGDMMPADEIEEMIYEADPQNSGYVQYETFVGMLFL [K2P]
discreteLabel: yes
//
biopolymerSequence: TKAQVIEAFKVFDWDGNGYVTVDYLRKVLNELGDMMPADEIEEMIYEADPQNSGYVQYETFVGMLFL [R14W]
discreteLabel: yes
//
biopolymerSequence: TKAQVIEAFKVFDRDGNGYVTVDYLRKVLNELGDMMPADEIEEMRYEADPQNSGYVQYETFVGMLFL [I45R]
discreteLabel: no
//
biopolymerSequence: TKAQVIEAFKVFDRDGNGYVTVDYLSKVLNELGDMMPADEIEEMIYEADPQNSGYVQYETFVGMLFL [R26S]
discreteLabel: no
//
biopolymerSequence: TKAQVILAFKVFDRDGNGYVTVDYLRKVLNELGDMMPADEIEEMIYEADPQNSGYVQYETFVGMLFL [E7L]
discreteLabel: yes
//
biopolymerSequence: TKAQVIEAFKVFDRDGNGYVTVDYLRKVLNEIGDMMPADEIEEMIYEADPQNSGYVQYETFVGMLFL [L32I]
discreteLabel: yes
//
biopolymerSequence: TKAQVIEAFKVFDRDGNGYVTVDYLRKVLNELGDMMPADEIEEMIYEADPQNSGYVQYETFVGMLFH [L67H]
discreteLabel: yes
//
biopolymerSequence: TKAQVIEAFKVFDRDGNGYVTVDYLRKVLNELGDMMPADEDEEMIYEADPQNSGYVQYETFVGMLFL [I41D]
discreteLabel: no
//
biopolymerSequence: TKAQVIEAFKVFDRDGNGYVTVDYLRKVLNELGDMMLADEIEEMIYEADPQNSGYVQYETFVGMLFL [P37L]
discreteLabel: yes
//
biopolymerSequence: TKAQVIEAFKVFDRDGNGYVTVDYLRKVLNELGDMMPADEIEEMIYEADPQNSGYVQYETFHGMLFL [V62H]
discreteLabel: no
//
biopolymerSequence: TKAQVIEAFKVFDRDGNGYVTVDYLRKVLNELGDMMPADEIEEMIYEADPQFSGYVQYETFVGMLFL [N52F]
discreteLabel: yes
//
biopolymerSequence: TKAQVIEAFKVFDRDGNGYVTVDYLRKVLNELGDMMPADEIEDMIYEADPQNSGYVQYETFVGMLFL [E43D]
discreteLabel: yes
//
biopolymerSequence: TKAQVIEAFKVFDRDGNGYVTVDYLRKVLNELGDMMPADEIEEMIYEADPQNSGQVQYETFVGMLFL [Y55Q]
discreteLabel: yes
//
biopolymerSequence: TKAQVIEAFKVFDRDGNGYVTVDYLRKVLNELGDMMGADEIEEMIYEADPQNSGYVQYETFVGMLFL [P37G]
discreteLabel: yes
//
biopolymerSequence: TKAQVIEAFKVFDRDGNGYVTVDYLRKVLNELGDMMPADEIEEMISEADPQNSGYVQYETFVGMLFL [Y46S]
discreteLabel: yes
//
biopolymerSequence: TKAQVIEAFKVFDRDGNGYVTVDYLRKVLNELGDMMPADEIEEMIYEADPQNSGYVQYETFVGMRFL [L65R]
discreteLabel: no
//
biopolymerSequence: TKAQVIEAFKVFDRDGNGYVTVDYLRKVLNELGDMMPADEIEEMIYEADPQNAGYVQYETFVGMLFL [S53A]
discreteLabel: yes
//
biopolymerSequence: TKAQVIEAFKVFDRDGNGYVTVDYLRKVDNELGDMMPADEIEEMIYEADPQNSGYVQYETFVGMLFL [L29D]
discreteLabel: no
//
biopolymerSequence: TYAQVIEAFKVFDRDGNGYVTVDYLRKVLNELGDMMPADEIEEMIYEADPQNSGYVQYETFVGMLFL [K2Y]
discreteLabel: yes
//
biopolymerSequence: TVAQVIEAFKVFDRDGNGYVTVDYLRKVLNELGDMMPADEIEEMIYEADPQNSGYVQYETFVGMLFL [K2V]
discreteLabel: yes
//
biopolymerSequence: TKAQVIEAFKVFDRDGNGYVTVDYLRKVLNELGDMMPADEIEEMIYEADPQDSGYVQYETFVGMLFL [N52D]
discreteLabel: yes
//
biopolymerSequence: TKAQVIEAFKVFDRDGNGYVTVDYLRKVLNELGDMMPADEIEEMIYHADPQNSGYVQYETFVGMLFL [E47H]
discreteLabel: yes
//
biopolymerSequence: TKAQVIEAFKVFDRDGNGYATVDYLRKVLNELGDMMPADEIEEMIYEADPQNSGYVQYETFVGMLFL [V20A]
discreteLabel: no
//
biopolymerSequence: TKAQVIEAFKVFDRDGNGYVTVDYLRKVLNELGDMMPADEIEEMIEEADPQNSGYVQYETFVGMLFL [Y46E]
discreteLabel: yes
//
biopolymerSequence: TKAQVIEAFKVFDRDGNGYVTVDYLRKVLNELGDMMPADEIEEKIYEADPQNSGYVQYETFVGMLFL [M44K]
discreteLabel: yes
//
biopolymerSequence: TKAQVIEAFKVFDRDGNGYVTVDYLRKVLNELGDMMPADEIEEMIYEADPQNSGYVQYETCVGMLFL [F61C]
discreteLabel: no
//
biopolymerSequence: TKAQVIEAFKVFDRDGNGYVTVWYLRKVLNELGDMMPADEIEEMIYEADPQNSGYVQYETFVGMLFL [D23W]
discreteLabel: yes
//
biopolymerSequence: TKAQVIEAFKVFDRDGNGYVTVDYLRKVLNELGDMMPADEIETMIYEADPQNSGYVQYETFVGMLFL [E43T]
discreteLabel: yes
//
biopolymerSequence: TKAQVIEAFKVFDRDGNGYVTVDYLRKVLNELGDMMPADEIEEMIYEADPQNSGYVEYETFVGMLFL [Q57E]
discreteLabel: yes
//
biopolymerSequence: TKAQVIEAFKVFDRDGNGYVTVDYLRKVLNELGDVMPADEIEEMIYEADPQNSGYVQYETFVGMLFL [M35V]
discreteLabel: yes
//
biopolymerSequence: TKAQVIEAFKVFDRDGNGYVTVDYLRKVLNELGDMMCADEIEEMIYEADPQNSGYVQYETFVGMLFL [P37C]
discreteLabel: yes
//
biopolymerSequence: TKAQVIEAFKVFDRDGNGYVTNDYLRKVLNELGDMMPADEIEEMIYEADPQNSGYVQYETFVGMLFL [V22N]
discreteLabel: no
//
biopolymerSequence: TKAQVIEAWKVFDRDGNGYVTVDYLRKVLNELGDMMPADEIEEMIYEADPQNSGYVQYETFVGMLFL [F9W]
discreteLabel: no
//
biopolymerSequence: TKAQVIEAFKVFDRDGNGYVTVDYLRKVLNELGDMMPADEIEEMIYEADPQNNGYVQYETFVGMLFL [S53N]
discreteLabel: yes
//
biopolymerSequence: TKAQVIEAFKVFDRDGNGYVTVDYLRVVLNELGDMMPADEIEEMIYEADPQNSGYVQYETFVGMLFL [K27V]
discreteLabel: yes
//
biopolymerSequence: TLAQVIEAFKVFDRDGNGYVTVDYLRKVLNELGDMMPADEIEEMIYEADPQNSGYVQYETFVGMLFL [K2L]
discreteLabel: yes
//
biopolymerSequence: TKAQVIEAFKVFDRDGNGYVTVDYLRKRLNELGDMMPADEIEEMIYEADPQNSGYVQYETFVGMLFL [V28R]
discreteLabel: no
//
biopolymerSequence: TKAQVIEAFKVFDRDGNGYVTVDYLRKVLNELVDMMPADEIEEMIYEADPQNSGYVQYETFVGMLFL [G33V]
discreteLabel: yes
//
biopolymerSequence: TKAQVIEWFKVFDRDGNGYVTVDYLRKVLNELGDMMPADEIEEMIYEADPQNSGYVQYETFVGMLFL [A8W]
discreteLabel: yes
//
biopolymerSequence: TKAQVIEAFKVFDRDGNGYVTVDYLRKVLNELGDMMPADEIEEMIYEADPQNSGYVQYETYVGMLFL [F61Y]
discreteLabel: no
//
biopolymerSequence: TKAQVIEAFKVFDRDGNGYVTVDYLRKVLNELGDMMPADEIEEMIYEADPMNSGYVQYETFVGMLFL [Q51M]
discreteLabel: yes
//
biopolymerSequence: TKAQVIEAFKVFDRDGNGYVTVDYLRKVLNELGDMMPADEIEEMIYEADPQNSGYVWYETFVGMLFL [Q57W]
discreteLabel: yes
//
biopolymerSequence: TKAQVIEAFKVFDRDGNGYVTVDYLRKVLNELGDMDPADEIEEMIYEADPQNSGYVQYETFVGMLFL [M36D]
discreteLabel: no
//
biopolymerSequence: TKAQVIEAFKVFDRDGNGYVTVDYLRKVLNELGDMMPADEIEEMIYEADPQNSGYKQYETFVGMLFL [V56K]
discreteLabel: no
//
biopolymerSequence: TKAQVIEAFKVFDRDGNGYVTVDYLRKVLNELGDMMPADHIEEMIYEADPQNSGYVQYETFVGMLFL [E40H]
discreteLabel: yes
//
biopolymerSequence: TKAQVIEAFKVFDRDGNGYVTVDYLRKVLNELGDMMPASEIEEMIYEADPQNSGYVQYETFVGMLFL [D39S]
discreteLabel: yes
//
biopolymerSequence: TKAQVIEAFKAFDRDGNGYVTVDYLRKVLNELGDMMPADEIEEMIYEADPQNSGYVQYETFVGMLFL [V11A]
discreteLabel: yes
//
biopolymerSequence: TKAQVIEAFKVFDRDGNGYVTVDYLRKVLNELGDMMPADEIEEMIYEADPQNSGYVDYETFVGMLFL [Q57D]
discreteLabel: yes
//
biopolymerSequence: TKAQVIEAFKVFDHDGNGYVTVDYLRKVLNELGDMMPADEIEEMIYEADPQNSGYVQYETFVGMLFL [R14H]
discreteLabel: yes
